Each recorded value in this set is attributed to paper PMC9070076.

Task for the reader: assign each of the following compounds its reported half-life.
Experiment: Multicomponent pharmacokinetics in rat plasma after single i.v. EBI
Format: in vivo, Sprague-Dawley rats
Conditions: Sprague-Dawley, iv, 3.6 mL kg^-1, t 1/2, High dosage: 3.6 mL kg^-1 of 10 times concentrated EBI, n = 6
Reply numerically in h, unit not repeated.

Reported half-life, compound O=C(O)[C@H]1O[C@@H](Oc2cc3oc(-c4ccc(O)cc4)cc(=O)c3c(O)c2O)[C@H](O)[C@@H](O)[C@@H]1O : ____
2.51

Reported half-life, compound O=C(O)/C=C/c1ccc(O)c(O)c1 : ____
0.22

---

Assay: Multicomponent pharmacokinetics in rat plasma after single i.v. EBI
Assay type: in vivo, Sprague-Dawley rats
Details: Sprague-Dawley, iv, 0.72 mL kg^-1, t 1/2, Low dosage: 0.72 mL kg^-1 of 10 times concentrated EBI, n = 6
readout_type: half-life (min)
Reply numerically in min, unit not repeated.

Reported half-life, molecule O=C(O)[C@H]1O[C@@H](Oc2cc3oc(-c4ccc(O)cc4)cc(=O)c3c(O)c2O)[C@H](O)[C@@H](O)[C@@H]1O : ____
74.4

Reported half-life, molecule O=C(O)/C=C/c1ccc(O)c(O)c1 : ____
13.8

---

Experiment: Multicomponent pharmacokinetics in rat plasma after single i.v. EBI
Assay type: in vivo, Sprague-Dawley rats
Settings: Sprague-Dawley, iv, 0.72 mL kg^-1, AUC0–t, Low dosage: 0.72 mL kg^-1 of 10 times concentrated EBI, n = 6
readout_type: AUC(0-t) (ng·h/mL)
Reply numerically in ng·h/mL, unit not repeated.

Reported AUC(0-t), compound O=C(O)/C=C/c1ccc(O)c(O)c1 [Caffeic acid, caffeic acid] : ____
75.2

Reported AUC(0-t), compound O=C(O)[C@H]1O[C@@H](Oc2cc3oc(-c4ccc(O)cc4)cc(=O)c3c(O)c2O)[C@H](O)[C@@H](O)[C@@H]1O [Scutellarin, scutellarin] : ____
1510

---

Test: Multicomponent pharmacokinetics in rat plasma after single i.v. EBI
Assay type: in vivo, Sprague-Dawley rats
Settings: Sprague-Dawley, iv, 3.6 mL kg^-1, MRT0–t, High dosage: 3.6 mL kg^-1 of 10 times concentrated EBI, n = 6
Task for the reader: assign each of the following compounds its reported MRT last.
Reply numerically in min, unit not repeated.

Reported MRT last, compound O=C(O)[C@H]1O[C@@H](Oc2cc3oc(-c4ccc(O)cc4)cc(=O)c3c(O)c2O)[C@H](O)[C@@H](O)[C@@H]1O [Scutellarin, scutellarin] : ____
27

Reported MRT last, compound O=C(O)/C=C/c1ccc(O)c(O)c1 [Caffeic acid, caffeic acid] : ____
12

---

Task for the reader: assign each of the following compounds its reported clearance.
Assay: Multicomponent pharmacokinetics in rat plasma after single i.v. EBI
Type: in vivo, Sprague-Dawley rats
Conditions: Sprague-Dawley, iv, 3.6 mL kg^-1, Cl, High dosage: 3.6 mL kg^-1 of 10 times concentrated EBI, n = 6
Reply numerically in mL/min, unit not repeated.

Reported clearance, compound O=C(O)/C=C/c1ccc(O)c(O)c1 [Caffeic acid, caffeic acid] : ____
6.83

Reported clearance, compound O=C(O)[C@H]1O[C@@H](Oc2cc3oc(-c4ccc(O)cc4)cc(=O)c3c(O)c2O)[C@H](O)[C@@H](O)[C@@H]1O [Scutellarin, scutellarin] : ____
7.5

---

Test: Multicomponent pharmacokinetics in rat plasma after single i.v. EBI
Type: in vivo, Sprague-Dawley rats
Settings: Sprague-Dawley, iv, 0.72 mL kg^-1, Cl, Low dosage: 0.72 mL kg^-1 of 10 times concentrated EBI, n = 6
readout_type: clearance (mL/min)
Reply numerically in mL/min, unit not repeated.

Reported clearance, compound O=C(O)/C=C/c1ccc(O)c(O)c1 : ____
8

Reported clearance, compound O=C(O)[C@H]1O[C@@H](Oc2cc3oc(-c4ccc(O)cc4)cc(=O)c3c(O)c2O)[C@H](O)[C@@H](O)[C@@H]1O : ____
8.5

---

Experiment: Multicomponent pharmacokinetics in rat plasma after single i.v. EBI
Assay type: in vivo, Sprague-Dawley rats
Settings: Sprague-Dawley, iv, 3.6 mL kg^-1, AUC0–t, High dosage: 3.6 mL kg^-1 of 10 times concentrated EBI, n = 6
Task for the reader: assign each of the following molecules its reported AUC(0-t).
Reply numerically in ng·h/mL, unit not repeated.

Reported AUC(0-t), molecule O=C(O)[C@H]1O[C@@H](Oc2cc3oc(-c4ccc(O)cc4)cc(=O)c3c(O)c2O)[C@H](O)[C@@H](O)[C@@H]1O : ____
6860

Reported AUC(0-t), molecule O=C(O)/C=C/c1ccc(O)c(O)c1 : ____
393
